molecules and their reported growth
- System: A549/ATCC NSCLC
- test_description: NCI-60 one-dose screen, 48 h (100 = growth as untreated, 0 = no growth, -100 = all killed)
- conditions: 10 µM unless noted
About 83,000 compounds went through this panel and 20% of them were active in at least one assay; those are over-represented in the sample as a whole. Activity calls are given as the source filed them. Rule for the calls: active = growth percent below 10; inactive = the rest.

[
  {
    "molecule": "O=C(Nc1ccccc1)Nc1ccccc1CNc1nc(Nc2ccc(OCCN3CCCC3)cc2)ncc1Cl",
    "assay_system": "A549/ATCC NSCLC",
    "growth": "59.4% (inactive)"
  },
  {
    "molecule": "CC(C)=CC(=O)C1C(=O)c2ccccc2C1=O",
    "assay_system": "A549/ATCC NSCLC",
    "growth": "106% (inactive)"
  },
  {
    "molecule": "CC1(C)CC[C@]2(CO)CC[C@]3(C)C(=CC[C@@H]4[C@@]5(C)CCNCC(C)(C)[C@@H]5CC[C@]43C)[C@@H]2C1",
    "assay_system": "A549/ATCC NSCLC",
    "growth": "85.6% (inactive)"
  },
  {
    "molecule": "COc1ccc(Nc2nccc(Nc3ccc4[nH]ncc4c3)n2)cc1",
    "assay_system": "A549/ATCC NSCLC",
    "growth": "24% (inactive)"
  },
  {
    "molecule": "Cn1ccnc1C(=O)/C=C/c1ccc(C(=O)Nc2ccccc2F)cc1",
    "assay_system": "A549/ATCC NSCLC",
    "growth": "17.1% (inactive)"
  },
  {
    "molecule": "COc1cc(C)cc(-c2c(-c3cc(N4CC(O)C4)nc(-c4cccnc4)n3)cnn2C)c1",
    "assay_system": "A549/ATCC NSCLC",
    "growth": "84.9% (inactive)"
  },
  {
    "molecule": "Cc1c(N2CCCCC2)[nH]c2ccccc12",
    "assay_system": "A549/ATCC NSCLC",
    "growth": "89% (inactive)"
  },
  {
    "molecule": "C#CCOc1cccc(Nc2ncnc3c(NC(=O)CCl)cccc23)c1",
    "assay_system": "A549/ATCC NSCLC",
    "growth": "47.4% (inactive)"
  },
  {
    "molecule": "Cc1c(C)c2c(c(C)c1OC(=O)CCC(=O)[O-])CCC(C)(CCCCCCCCCCC[P+](c1ccccc1)(c1ccccc1)c1ccccc1)O2 (centres undefined)",
    "assay_system": "A549/ATCC NSCLC",
    "growth": "-2.64% (active)"
  },
  {
    "molecule": "COC(=O)[C@@H](Cc1c[nH]c2ccccc12)NC(=O)[C@H](Cc1ccccc1)NCc1ccncc1",
    "assay_system": "A549/ATCC NSCLC",
    "growth": "83.9% (inactive)"
  },
  {
    "molecule": "CC(C)n1cc(C2=C(c3cccc4ccccc34)C(=O)NC2=O)c2cc(Br)ccc21",
    "assay_system": "A549/ATCC NSCLC",
    "growth": "60.5% (inactive)"
  },
  {
    "molecule": "CC(=O)[C@H]1CC[C@]2(C)[C@@H]1CC[C@@H]1[C@@]3(C)C/C(=C/c4cccnc4)C(=O)C(C)(C)[C@@H]3CC[C@]12C",
    "assay_system": "A549/ATCC NSCLC",
    "growth": "65.9% (inactive)"
  },
  {
    "molecule": "CC(CN)[C@@H]1CC[C@]2(CO)CC[C@]3(C)[C@H](CC[C@@H]4[C@@]5(C)CCC(NCCO)C(C)(C)[C@@H]5CC[C@]43C)[C@@H]12 (some centres undefined)",
    "assay_system": "A549/ATCC NSCLC",
    "growth": "59.2% (inactive)"
  },
  {
    "molecule": "COCCNC(=O)Cc1cc(-c2ccc(Cl)cc2)n(-c2ccccc2)c1C",
    "assay_system": "A549/ATCC NSCLC",
    "growth": "82.1% (inactive)"
  },
  {
    "molecule": "COc1cc(/C=C2\\CN(S(=O)(=O)c3ccc(C)cc3)C/C(=C\\c3cc(CN4CCCC4)c(O)c(OC)c3)C2=O)cc(CN2CCCC2)c1O",
    "assay_system": "A549/ATCC NSCLC",
    "growth": "21.2% (inactive)"
  },
  {
    "molecule": "O=C(Nc1ncc(Cc2ccccc2)s1)c1cc(-c2ccccc2)nc2ccccc12",
    "assay_system": "A549/ATCC NSCLC",
    "growth": "98.2% (inactive)"
  },
  {
    "molecule": "COc1ccc(-c2csc(NC(=O)CSc3nc(C)cc(=O)[nH]3)n2)cc1",
    "assay_system": "A549/ATCC NSCLC",
    "growth": "104% (inactive)"
  },
  {
    "molecule": "c1ccc(-c2cn3nc(-c4c[nH]c5ccccc45)sc3n2)cc1",
    "assay_system": "A549/ATCC NSCLC",
    "growth": "82.6% (inactive)"
  },
  {
    "molecule": "CCOC(=O)c1c(C)n2c(=O)cc(C)c3c(OC(C)=O)c(OC(C)=O)cc1c32",
    "assay_system": "A549/ATCC NSCLC",
    "growth": "79.8% (inactive)"
  }
]
